Target: JAK2 (Homo sapiens (Human), UniProt O60674)
Sequence (O60674 849-1124): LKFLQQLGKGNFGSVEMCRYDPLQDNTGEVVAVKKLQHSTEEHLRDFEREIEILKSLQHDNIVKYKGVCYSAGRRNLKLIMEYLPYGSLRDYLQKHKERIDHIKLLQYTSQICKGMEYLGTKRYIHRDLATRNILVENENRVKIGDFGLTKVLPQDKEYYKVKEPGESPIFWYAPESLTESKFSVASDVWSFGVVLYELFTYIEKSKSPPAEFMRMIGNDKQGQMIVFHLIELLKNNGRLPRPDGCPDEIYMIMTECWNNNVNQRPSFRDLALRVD
Assay: Jak Biochemical HTRF Assay, JAK2
Settings: HTRF biochemical assay, GST-tagged catalytic domain; top concentration tested […]
Below: a set of entries, each annotated with reported pIC50.
Reminder that pIC50 is minus the log10 of a molar concentration.

For CC(C)(C)OC(=O)N1CCC(CC#N)(n2cc(C(N)=O)c(Nc3ccc(C#N)c(F)c3)n2)CC1 the molecule record lists pIC50 as 8.15

Value of pIC50 reported for the molecule Cc1cccc(C)c1NC(=O)N1CC(CC#N)(n2cc(C(N)=O)c(Nc3ccccc3)n2)C1 is 6.18

The reported value for N#CCC1(n2cc(C(N)=O)c(Nc3ccnc(F)c3)n2)CCN(Cc2ccccc2F)CC1 in terms of pIC50 is 8.70

We now examine a further molecule.
What the record says about CN(C)S(=O)(=O)c1ccc(Nc2nn(C3(CC#N)CCN(C(=O)OC(C)(C)C)CC3)cc2C(N)=O)cc1 : pIC50 is 9.10

---

Target: JAK2 (Homo sapiens (Human), UniProt O60674)
Experiment: Jak Biochemical HTRF Assay, JAK2
Settings: HTRF biochemical assay, GST-tagged catalytic domain; top concentration tested […]
List of IC50 values.
All answers are understood in nM, so give the number only.

Lab note: N#CCC1(n2cc(C(N)=O)c(Nc3ccccc3)n2)CCN(C(=O)c2ccccc2-c2ccccc2)CC1 gave IC50 of 1480

Quick note, IC50 for N#CCC1(n2cc(C(N)=O)c(Nc3ccc(F)cc3)n2)CCN(c2cc(F)cc(F)c2)CC1 landed at 67

compound CC(C)(C)OC(=O)N1CCC(CC#N)(n2cc(C(N)=O)c(Nc3ccnc(N)c3)n2)CC1 , IC50 observed: 3

# IC50 of N#CCC1(n2cc(C(N)=O)c(Nc3ccccc3)n2)CCN(C(=O)c2cccc(Cl)c2)CC1 = 63

Reported IC50 for N#CCC1(n2cc(C(N)=O)c(Nc3ccc(F)cc3)n2)CCN(C(=O)OCCC(F)(F)F)CC1 was 97

---
Lookup result for N#CCC1(n2cc(C(N)=O)c(Nc3ccccc3)n2)CCN(Cc2c(Cl)cccc2Cl)CC1 ; measured IC50: 224

---

Target: JAK1 (Homo sapiens (Human), UniProt P23458)
Sequence (P23458 875-1153): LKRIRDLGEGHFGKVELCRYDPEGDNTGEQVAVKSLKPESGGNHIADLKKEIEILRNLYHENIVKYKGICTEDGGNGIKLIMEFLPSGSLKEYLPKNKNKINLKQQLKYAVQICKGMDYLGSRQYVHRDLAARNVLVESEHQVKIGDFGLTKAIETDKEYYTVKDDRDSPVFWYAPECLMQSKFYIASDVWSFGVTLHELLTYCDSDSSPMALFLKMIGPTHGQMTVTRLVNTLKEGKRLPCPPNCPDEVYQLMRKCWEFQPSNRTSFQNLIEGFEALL
Test: Jak Biochemical HTRF Assay, JAK1
Details: HTRF biochemical assay, GST-tagged catalytic domain; top concentration tested […]; read-out: JAK1 IC50
I'd appreciate it if you marked entries Yes when IC50 is lower than 0.5 nM and No when it is not.

Record excerpt, results attached:
Is IC50 strictly under 0.5 nM for the entry N#CCC1(n2cc(C(N)=O)c(Nc3ccc(F)cc3)n2)CCN(C(=O)CC(F)(F)F)CC1 ?
Yes

Please determine if N#CCC1(n2cc(C(N)=O)c(Nc3ccnc(F)c3)n2)CCN(Cc2cccc3ccnn23)CC1 is below 0.5 nM in terms of IC50.
No

For this molecule, is IC50 lower than 0.5 nM? N#CCC1(n2cc(C(N)=O)c(Nc3ccccc3)n2)CCN(Cc2ccccc2Cl)CC1
No

Determine whether this molecule shows IC50 lower than 0.5 nM (ties excluded): N#CCC1(n2cc(C(N)=O)c(Nc3ccnc(F)c3)n2)CCC(NCc2ccccc2)CC1 (centres unmarked) [Example 41-28]
No

Further cases:
Say whether its IC50 is strictly beneath 0.5 nM. Entry: Cn1cc(-c2cncc(Nc3nn(C4(CC#N)CCN(C(=O)OCC(F)(F)F)CC4)cc3C(N)=O)c2)cn1
No

IC50 strictly < 0.5 nM for this molecule? N#CCC1(n2cc(C(N)=O)c(Nc3ccnc(F)c3)n2)CCC(NCc2ccc(Cl)cc2)CC1 (centres unmarked) [Example 41-15]
Yes

Quick check: IC50 of Cc1cc(Nc2nn(C3(CC#N)CCN(C(=O)OC(C)(C)C)CC3)cc2C(N)=O)ncn1 under 0.5 nM?
No
